The measurements presented in this section are drawn from patent US20230322924A1.

target: T1, Cyno CD33 ECD-HSA (cynomolgus monkey); assay: ProteOn SPR, mAb captured by anti-human Fc, 1:1 Langmuir fit
T1 construct: Cyno CD33 extracellular domain fused to monomeric human serum albumin and a six-histidine tag; also called C33W1
Could you mark each record fulfilled if its Kd falls strictly under 0.6 nM, and not fulfilled if it equals or exceeds it?

INSERT INTO measurements (binder, discrete_label) VALUES
  ('C33B73 (antibody, IgG1, V domains shown, huIgG1 F405L; also called C33F78; C33H66/C33L60) VH: QVQLVESGGGVVQPGRSLRLSCVASGFTFSSYGMHWVRQAPGKGLEWVAVISYDGSNKYYADSVKGRFTISRDNSKNTLYLQMNSLRAEGTAVYYCAKDFRSFDWLPPDSASYHGMDVWGQGTTVTVSS VL: SYELTQPPSVSVSPGQTASITCSGDKLGDKYACWYQQKPGQSPVLVIYQDGKRPSGIPERFSGSNFGNKATLTISGTQAMDEADYYCQAWDRNTVVFGGGTKLTVL', 'not fulfilled'),
  ('C33B82 (antibody, IgG1, V domains shown, huIgG1 F405L; also called C33F87; C33H78/C33L57) VH: QVQLVESGGGVVQPGRSLRLSCAASGFTFSSYGMHWVRQAPGKGLEWVAVISYDGSNKYYADSVKGRFTISRDNSKNTLFLQMNSLRAEDTAVYYCAKDFRYFDWLPPDSSSYYGMDVWGQGTTVTVSS VL: SYELTQPPSVSVSPGQTASITCSGDELGNKYACWYQQKPGQSPVVVVYQDRKRPSGIPERFSGSNFGNTATLTISGTQAMDEADYYCQAWDSSTVVFGGGTKLTVL', 'not fulfilled'),
  ('C33B89 (antibody, IgG1, V domains shown, huIgG1 F405L; also called C33F94; C33H90/C33L51) VH: QVQLQQSGPGLVKPSQTLSLTCAISGDSVSSNSAAWNWIRQSPSRGLEWLGRTYYRSKWYNDYALSVQSRITINPDTSKNQFSLQLNSVTPEDTAVYYCAREVAVAASFDYWGQGTLVTVSS VL: SYVLTQPPSVSVAPGQTARITCGGNNIGSKSVHWSQQKPGQAPVLVVYDDSDRPSGIPERFSGSNSGNTATLTISRVEAGDEADYYCQVWDSNSDHVVFGGGTKLTVL', 'not fulfilled'),
  ('C33B80 (antibody, IgG1, V domains shown, huIgG1 F405L; also called C33F85; C33H76/C33L39) VH: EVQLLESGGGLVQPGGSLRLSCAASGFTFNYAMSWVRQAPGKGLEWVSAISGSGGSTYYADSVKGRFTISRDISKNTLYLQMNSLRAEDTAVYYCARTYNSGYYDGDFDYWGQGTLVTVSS VL: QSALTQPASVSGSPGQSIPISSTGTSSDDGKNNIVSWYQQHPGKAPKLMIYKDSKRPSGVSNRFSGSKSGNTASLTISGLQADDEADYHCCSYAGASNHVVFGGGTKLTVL', 'fulfilled'),
  ('C33B52 (antibody, IgG1, V domains shown, huIgG1 F405L; also called C33F57; C33H42/C33L8) VH: QLQLQESGPGLVNPSETLSHTCTVSGGSISSSSHYWGWIRQPPGKGLEWIGKIYYSGNTYYNPSLKSRVTISIDTSKNQFSLKMSSVTAADTAVYYCARLADVVVVPAARYFDSWGQGTLVTVSS VL: SYELTQPPSVSVSPGQTASIICSGDKLGNKYACWYQQKPGQSPVLVIYQDSKRPSGIPERFSGSNSGNTATLTISGTQAVDEADYYCQAWDSSTYVFGTGTKVTVL', 'not fulfilled'),
  ('C33B46 (antibody, IgG1, V domains shown, huIgG1 F405L; also called C33F51; C33H108/C33L74) VH: QVQLVQSGSELKKPGASVKVSCKASGYTFSTYAMNWVRQAPGQGLEWMGWINTNTGNPTYAQGFTGRFVFSLDTSVSTAYLQISSLKAEDTAVYYCARDRDRGTDYWGQGTLVTVSS VL: QSALTQPASVSGSPGQSITISCTGTSSDVGDDNYVSWYQQHPGKAPKLMIYDVSNRPSGVSNRFSGSKSGNTASLTISGLQSEDEADYYCSSYSSSTTLEVFGGGTKLTVL', 'fulfilled');
